- target.under.test: Cannabinoid receptor 2 (Homo sapiens, UniProt P34972)
- Sequence (P34972 whole entry): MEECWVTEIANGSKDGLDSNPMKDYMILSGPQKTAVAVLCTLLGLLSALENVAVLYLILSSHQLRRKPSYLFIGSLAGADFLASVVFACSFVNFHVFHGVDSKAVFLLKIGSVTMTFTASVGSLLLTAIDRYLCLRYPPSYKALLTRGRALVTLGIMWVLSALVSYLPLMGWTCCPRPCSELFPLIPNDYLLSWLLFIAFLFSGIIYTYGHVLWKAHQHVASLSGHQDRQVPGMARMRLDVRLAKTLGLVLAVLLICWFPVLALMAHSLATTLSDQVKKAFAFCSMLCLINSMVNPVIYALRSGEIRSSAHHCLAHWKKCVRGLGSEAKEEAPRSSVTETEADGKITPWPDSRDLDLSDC
- test.method.notes: Inverse agonist activity at human CB2 receptor expressed in HEK293 cells assessed as forskolin-stimulated cAMP accumulation measured after 30 mins by HTRF assay
Each entry below carries its reported EC50.

Answered examples (2):
> print(dat)
                                   compound                         target.under.test  reported.property  endpoint.result
1  Clc1ccc(C(c2ccc(Cl)cc2)c2ccc3nncc(NC4CCC(Nc5ccccc5)CC4)c3c2)cc1 (stereo not drawn)  Cannabinoid receptor 2 (Homo sapiens, UniProt P34972)               EC50          > 10 µM
2  O=C(O)c1ccccc1S(=O)(=O)N1CCC(Nc2cnnc3ccc(C(c4ccc(Cl)cc4)c4ccc(Cl)cc4)cc23)CC1  Cannabinoid receptor 2 (Homo sapiens, UniProt P34972)               EC50          > 10 µM

Lab note: `O=S(=O)(N1CCC(Nc2cnnc3ccc(C(O)(c4ccc(Cl)cc4)c4ccc(Cl)cc4)cc23)CC1)C(F)(F)F` gave EC50 of > 10 µM
